- measurement.target: UniProt Q92830
- assay.comment: KAT2A acetyltransferase biochemical assay (RapidFire mass spectrometry, AcCoA to CoA)
- run.parameters: KAT2A Ki at 1 μM AcCoA, 5 μM H3 1-21 peptide, 0.5 nM KAT2A, 90-minute reaction
The entries below come with measured Ki values attached.
endpoint: Ki (nM)

1) CC(C)S(=O)(=O)NC(=O)C(C)(C)c1ccc(O[C@@H]2CC[C@@H](NC(=O)[C@@]3(F)CNC4(CCC4)C3)C2)c(-c2cccc(F)c2C2CCC2)c1 (single isomer, unassigned) [Example B3] :: 236
2) CN1CC(C)(C)C[C@H]1C(=O)N[C@H]1C[C@H](COc2ccc(C(C)(C)C(=O)O)cc2-c2cccc(F)c2C2CCC2)C1 [Example F2] :: 9.11
3) CS(=O)(=O)NC(=O)Cc1ccc(O[C@@H]2CC[C@@H](NC(=O)[C@]3(F)CNC4(CCC4)C3)C2)c(-c2cccc(F)c2C2CCC2)c1 (single isomer, unassigned) [Example C38] :: 0.09

----------
- measurement.target: KAT2A (Homo sapiens (Human), UniProt Q92830)
- Sequence (Q92830 whole entry): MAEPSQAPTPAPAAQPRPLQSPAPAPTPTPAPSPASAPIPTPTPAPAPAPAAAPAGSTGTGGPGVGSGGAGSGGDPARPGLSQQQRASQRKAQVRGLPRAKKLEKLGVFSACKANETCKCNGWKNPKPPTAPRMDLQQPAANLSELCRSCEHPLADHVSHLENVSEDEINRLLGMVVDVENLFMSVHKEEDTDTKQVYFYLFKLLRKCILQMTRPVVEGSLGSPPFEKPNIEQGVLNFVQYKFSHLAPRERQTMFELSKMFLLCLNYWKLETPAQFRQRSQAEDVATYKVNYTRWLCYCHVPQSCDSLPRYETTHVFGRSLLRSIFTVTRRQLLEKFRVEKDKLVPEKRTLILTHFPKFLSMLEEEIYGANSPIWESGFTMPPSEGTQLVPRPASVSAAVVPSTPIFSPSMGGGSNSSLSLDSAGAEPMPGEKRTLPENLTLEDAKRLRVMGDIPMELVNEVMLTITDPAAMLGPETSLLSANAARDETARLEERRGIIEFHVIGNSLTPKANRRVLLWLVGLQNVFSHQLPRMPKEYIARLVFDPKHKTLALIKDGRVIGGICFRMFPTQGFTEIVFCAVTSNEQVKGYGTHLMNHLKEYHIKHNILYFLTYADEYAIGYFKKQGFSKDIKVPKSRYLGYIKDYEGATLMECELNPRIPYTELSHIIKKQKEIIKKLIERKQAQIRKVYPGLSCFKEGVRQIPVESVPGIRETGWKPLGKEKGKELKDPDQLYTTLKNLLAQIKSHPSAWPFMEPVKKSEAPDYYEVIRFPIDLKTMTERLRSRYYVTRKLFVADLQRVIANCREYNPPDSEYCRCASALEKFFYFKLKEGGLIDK
- assay.comment: KAT2A acetyltransferase biochemical assay (RapidFire mass spectrometry, AcCoA to CoA)
- run.parameters: KAT2A Ki at 1 μM AcCoA, 5 μM H3 1-21 peptide, 0.5 nM KAT2A, 90-minute reaction
pKi: −log10 of the molar value.
We use 9 as the dividing line for pKi: on or above the line is class 1, below is class 0.

1. CC(C)S(=O)(=O)NC(=O)Cc1ccc(O[C@@H]2CC[C@@H](NC(=O)[C@]3(F)CNC4(CCC4)C3)C2)c(-c2cccc(F)c2C2CCC2)c1 (single isomer, unassigned) [Example C40] :: class 1
2. CS(=O)(=O)NC(=O)Cc1ccc(O[C@@H]2CC[C@@H](NC(=O)C3(F)CNC4(CCCC4)C3)C2)c(-c2cccc(F)c2C2CCC2)c1 (single isomer, unassigned) [Example B16] :: class 1
3. CS(=O)(=O)NC(=O)Cc1ccc(O[C@@H]2CC[C@@H](NC(=O)[C@]3(F)CNC4(CCC4)C3)C2)c(-c2cccc(F)c2C2CCC2)c1 (single isomer, unassigned) [Example C39] :: class 0
4. CN(C)S(=O)(=O)NC(=O)C(C)(C)c1ccc(O[C@@H]2CC[C@@H](NC(=O)[C@@]3(F)CNC4(CCC4)C3)C2)c(-c2cccc(F)c2C2CCC2)c1 :: class 1
5. CC(C)(C(=O)O)c1ccc(O[C@@H]2CC[C@@H](NC(=O)[C@]3(F)CNC4(CCC4)C3)C2)c(-c2cccc(F)c2C2CCC2)c1 :: class 0
6. CCS(=O)(=O)NC(=O)C(C)(C)c1ccc(O[C@@H]2CC[C@@H](NC(=O)C3(F)CNC4(CCC4)C3)C2)c(-c2cccc(F)c2C2CCC2)c1 (single isomer, unassigned) [Example B2] :: class 1
7. C[C@@H](C(=O)O)c1nn(C)cc1-c1ccc(O[C@@H]2CC[C@@H](NC(=O)[C@]3(F)CNC4(CCC4)C3)C2)c(-c2cccc(F)c2C2CCC2)c1 (single isomer, unassigned) :: class 0
8. CS(=O)(=O)NC(=O)Cc1ccc(O[C@@H]2CC[C@@H](NC(=O)C3(F)CNC4(CCCC4)C3)C2)c(-c2cccc(F)c2C2CCC2)c1 (single isomer, unassigned) [Example B15] :: class 0
9. CC(C(=O)NS(C)(=O)=O)c1ccc(O[C@@H]2CC[C@@H](NC(=O)[C@@H]3CC(C)(C)CN3C)C2)c(-c2cccc(F)c2C2CCC2)c1 (single isomer, unassigned) [Example E8] :: class 1

----------
- measurement.target: KAT2B (Homo sapiens (Human), UniProt Q92831)
- Sequence (Q92831 2-832): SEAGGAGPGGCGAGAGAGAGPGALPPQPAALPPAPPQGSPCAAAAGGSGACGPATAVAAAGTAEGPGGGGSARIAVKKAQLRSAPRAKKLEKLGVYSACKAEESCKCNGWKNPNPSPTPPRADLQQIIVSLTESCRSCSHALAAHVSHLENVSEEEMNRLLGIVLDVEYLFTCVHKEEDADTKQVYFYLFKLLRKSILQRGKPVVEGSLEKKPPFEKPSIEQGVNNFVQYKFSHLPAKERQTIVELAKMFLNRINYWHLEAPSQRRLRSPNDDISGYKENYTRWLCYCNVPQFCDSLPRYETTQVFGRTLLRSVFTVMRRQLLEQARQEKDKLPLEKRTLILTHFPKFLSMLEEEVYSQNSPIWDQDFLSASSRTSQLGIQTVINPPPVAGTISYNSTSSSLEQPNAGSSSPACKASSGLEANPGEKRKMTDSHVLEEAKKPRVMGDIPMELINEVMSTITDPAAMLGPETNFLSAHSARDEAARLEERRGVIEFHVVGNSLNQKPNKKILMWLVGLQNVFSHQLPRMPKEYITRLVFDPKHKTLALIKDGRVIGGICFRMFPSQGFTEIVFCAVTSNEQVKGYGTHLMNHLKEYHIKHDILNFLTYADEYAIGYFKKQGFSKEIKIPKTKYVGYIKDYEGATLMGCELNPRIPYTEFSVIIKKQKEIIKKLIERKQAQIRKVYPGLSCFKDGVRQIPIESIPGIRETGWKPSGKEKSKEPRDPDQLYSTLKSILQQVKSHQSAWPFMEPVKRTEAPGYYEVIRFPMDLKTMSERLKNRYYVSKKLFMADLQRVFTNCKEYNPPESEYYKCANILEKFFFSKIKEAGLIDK
- assay.comment: KAT2B acetyltransferase biochemical assay (RapidFire mass spectrometry, AcCoA to CoA)
- run.parameters: read-out: KAT2B Ki at 1 μM AcCoA; 1 μM AcCoA, 5 μM H3 1-21 peptide, 0.5 nM KAT2B, 90-minute reaction
endpoint: Ki (nM)

1) CN1CC(C)(C)C[C@H]1C(=O)N[C@@H]1CC[C@@H](Oc2cccc(CC(=O)O)c2-c2ccccc2C2CCC2)C1 (atropisomer, axis not shown) :: 63.6
2) CCc1c(F)cccc1-c1cc(C(C)(C)C(=O)NS(=O)(=O)CC)ccc1O[C@@H]1CC[C@@H](NC(=O)[C@@]2(F)CNC3(CCCC3)C2)C1 (single isomer, unassigned) [Example C25] :: 0.55
3) CCS(=O)(=O)NC(=O)C(C)(C)c1ccc(O[C@@H]2CC[C@@H](NC(=O)[C@@]3(F)CNC(C)(C)C3)C2)c(-c2cccc(F)c2C2CCC2)c1 (single isomer, unassigned) :: 0.35

----------
- measurement.target: UniProt Q92830
- assay.comment: KAT2A acetyltransferase biochemical assay (RapidFire mass spectrometry, AcCoA to CoA)
- run.parameters: read-out: KAT2A Ki at 1 μM AcCoA, 5 μM H3 1-21 peptide, 0.5 nM KAT2A, 90-minute reaction
pKi: −log10 of the molar value.
endpoint: pKi

1) CN1CC(C)(C)C[C@H]1C(=O)N[C@@H]1CC[C@@H](Oc2ccc(CC(=O)NS(=O)(=O)N(C)C)cc2-c2cccc(F)c2C2CCC2)C1 :: 10.52
2) CCc1c(F)cccc1-c1cc(C(C)(C)C(=O)NS(C)(=O)=O)ccc1O[C@@H]1CC[C@@H](NC(=O)[C@@]2(F)CNC3(CCCC3)C2)C1 (single isomer, unassigned) [Example C27] :: 9.80
3) CCc1c(F)cccc1-c1cc(C(C)(C)C(=O)NS(=O)(=O)CC)ccc1O[C@@H]1CC[C@@H](NC(=O)[C@@]2(F)CNC3(CCCC3)C2)C1 (single isomer, unassigned) [Example C24] :: 9.47
4) CC(C)c1ccccc1-c1cc(CC(=O)NS(=O)(=O)C2(C)CC2)ccc1O[C@@H]1CC[C@@H](NC(=O)[C@@]2(F)CNC3(CCCC3)C2)C1 (single isomer, unassigned) [Example C61] :: 10.15
5) CC1(C)C[C@@](F)(C(=O)N[C@@H]2CC[C@@H](Oc3ccc(C(C)(C)C(=O)NS(C)(=O)=O)cc3-c3cccc(F)c3C3CCC3)C2)CN1 (single isomer, unassigned) :: 9.77
6) CN(C)S(=O)(=O)NC(=O)C(C)(C)c1ccc(O[C@@H]2CC[C@@H](NC(=O)[C@@]3(F)CNC(C)(C)C3)C2)c(-c2cccc(F)c2C2CCC2)c1 (single isomer, unassigned) :: 10.22
7) CC(C)(C(=O)NS(=O)(=O)C1(C)CC1)c1ccc(O[C@@H]2CC[C@@H](NC(=O)[C@@]3(F)CNC4(CCC4)C3)C2)c(-c2cccc(F)c2C2CCC2)c1 (single isomer, unassigned) [Example B33] :: 7.56
8) CC(C)c1ccccc1-c1cc(CC(=O)NS(=O)(=O)C(C)C)ccc1O[C@@H]1CC[C@@H](NC(=O)[C@@]2(F)CNC3(CCC3)C2)C1 :: 9.96
9) CN1CC(C)(C)C[C@H]1C(=O)N[C@@H]1CC[C@@H](Oc2ccc(C(C)(C)C(=O)NS(C)(=O)=O)cc2-c2ccc(F)c(F)c2C2CCC2)C1 :: 8.77
10) CN1CC(C)(C)C[C@H]1C(=O)N[C@@H]1CC[C@@H](Oc2ccc(C(C)(C)C(=O)NS(=O)(=O)N(C)C)cc2-c2cccc(F)c2C2CCC2)C1 :: 10.10
11) CCS(=O)(=O)NC(=O)C(C)(C)c1ccc(O[C@@H]2CC[C@@H](NC(=O)[C@@]3(F)CNCC4(CCC4)C3)C2)c(-c2cccc(F)c2C2CCC2)c1 (single isomer, unassigned) [Example B31] :: 10.40
12) [2H]C([2H])([2H])N1CC(C)(C)C[C@H]1C(=O)N[C@@H]1CC[C@@H](Oc2ccc(C(C)(C)C(=O)O)cc2-c2cccc(F)c2C2CCC2)C1 :: 8.05
13) CCc1c(F)cccc1-c1cc(CC(=O)NS(=O)(=O)C(C)C)ccc1O[C@@H]1CC[C@@H](NC(=O)[C@@]2(F)CNCC(C)(C)C2)C1 (single isomer, unassigned) [Example C67] :: 10.15
14) CC(C)c1ccccc1-c1cc(CC(=O)NS(=O)(=O)C2(C)CC2)ccc1O[C@@H]1CC[C@@H](NC(=O)[C@@]2(F)CNCC(C)(C)C2)C1 (single isomer, unassigned) [Example C81] :: 7.51
15) O=C(O)Cc1ccc(O[C@@H]2CC[C@@H](NC(=O)[C@@]3(F)CNC4(CCC4)C3)C2)c(-c2cccc(F)c2C2CCC2)c1 (single isomer, unassigned) :: 8.90
16) CC1(C)C[C@@H](C(=O)N[C@@H]2CC[C@@H](Oc3cccc(C(=O)O)c3-c3cccc(F)c3C3CCC3)C2)CN1 (atropisomer, axis not shown) [Example H8] :: 6.46
17) CC(C)(C(=O)O)c1ccc(O[C@@H]2CC[C@@H](NC(=O)[C@@]3(F)CNCC4(CCC4)C3)C2)c(-c2cccc(F)c2C2CCC2)c1 (single isomer, unassigned) [Example A27] :: 9.80
